- experimental_target: binding partner of C5A (XPA23)
- assay_details: Biacore
Measured fold difference in affinity vs original accompanies every entry in the list below.
property_label: fold difference in affinity vs original

- C5A (XPA23) VH R59L (antibody, V domains shown) VH: EVQLLESGGGLVQPGGSLRLSCAASGFTFSKYFMFWVRQAPGKGLEWVSVISPSGGMTLYADSVKGRFTISRDNSKNTLYLQMNSLRAEDTAVYYCARVGYGGNSDYWGQGTLVTVSS VL: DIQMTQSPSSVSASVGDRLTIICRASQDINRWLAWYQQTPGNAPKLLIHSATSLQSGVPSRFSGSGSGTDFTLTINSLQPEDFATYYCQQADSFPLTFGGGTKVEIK: 0.08 fold
- C5A (XPA23) VH S52G (antibody, V domains shown) VH: EVQLLESGGGLVQPGGSLRLSCAASGFTFSKYFMFWVRQAPGKGLEWVSVIGPSGGMTRYADSVKGRFTISRDNSKNTLYLQMNSLRAEDTAVYYCARVGYGGNSDYWGQGTLVTVSS VL: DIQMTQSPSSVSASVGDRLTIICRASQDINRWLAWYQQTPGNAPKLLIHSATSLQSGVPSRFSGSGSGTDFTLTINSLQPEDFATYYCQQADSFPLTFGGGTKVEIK: 0.03 fold
- C5A (XPA23) VH R59G (antibody, V domains shown) VH: EVQLLESGGGLVQPGGSLRLSCAASGFTFSKYFMFWVRQAPGKGLEWVSVISPSGGMTGYADSVKGRFTISRDNSKNTLYLQMNSLRAEDTAVYYCARVGYGGNSDYWGQGTLVTVSS VL: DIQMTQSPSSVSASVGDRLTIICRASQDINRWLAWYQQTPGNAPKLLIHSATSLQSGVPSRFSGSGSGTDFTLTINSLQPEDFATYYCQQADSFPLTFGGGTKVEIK: 1.04 fold

These entries and their values trace back to patent US20110118447A1.
